Test system: WSU-NHL
Assay: Combination study, ATPLite 72 h, dose matrix (Synergy Score, CI50)
Conditions: combination with Compound 1, 72 h
Structures can show the parent of a compound that is named as a salt.
metric name: CI50 growth inhibition

Solved cases below.
CC(C)C[C@H](NC(=O)[C@H](CCc1ccccc1)NC(=O)CN1CCOCC1)C(=O)N[C@@H](Cc1ccccc1)C(=O)N[C@@H](CC(C)C)C(=O)[C@@]1(C)CO1; U (U=0.7 to <1)
CC(C)C[C@H](NC(=O)[C@H](Cc1ccccc1)NC(=O)c1cnccn1)B(O)O; U (U=0.7 to <1)
CO[C@H]1C[C@@H]2CC[C@@H](C)[C@@](O)(O2)C(=O)C(=O)N2CCCC[C@H]2C(=O)O[C@H]([C@H](C)C[C@@H]2CC[C@@H](OCCO)[C@H](OC)C2)CC(=O)[C@H](C)/C=C(\C)[C@@H](O)[C@@H](OC)C(=O)[C@H](C)C[C@H](C)/C=C/C=C/C=C/1C; T (T=0.5 to <0.7)
CCCCCCCCCCCCCCCCCCOP(=O)([O-])OC1CC[N+](C)(C)CC1; U (U=0.7 to <1)
O=C(Nc1ccc2[nH]nc(-c3ccncc3)c2c1)[C@@H]1CCN(CC(=O)N2CCN(c3ccc(-c4ncccn4)cc3)CC2)C1; U (U=0.7 to <1)
Nc1ncn([C@@H]2O[C@H](CO)[C@@H](O)[C@H]2O)c(=O)n1; T (T=0.5 to <0.7)
COc1cccc2c1C(=O)c1c(O)c3c(c(O)c1C2=O)C[C@@](O)(C(=O)CO)C[C@@H]3O[C@H]1C[C@H](N)[C@H](O)[C@H](C)O1 [Doxorubicin HCl]; T (T=0.5 to <0.7)
CN1CCc2c(c3ccccc3n2Cc2ccc(C(=O)NO)cc2)C1.Cl [Tubastatin A hydrochloride]; T (T=0.5 to <0.7)

Next:
INPUT: Would you mind telling me what CI50 growth inhibition value was observed for `COc1ccc(-c2ccc3c(N4CCOC[C@@H]4C)nc(N4CCOC[C@@H]4C)nc3n2)cc1CO` ?
OUTPUT: T (T=0.5 to <0.7)
